- target_or_system: Tyrosine-protein kinase JAK2 (Homo sapiens)
- Sequence (O60674 whole entry): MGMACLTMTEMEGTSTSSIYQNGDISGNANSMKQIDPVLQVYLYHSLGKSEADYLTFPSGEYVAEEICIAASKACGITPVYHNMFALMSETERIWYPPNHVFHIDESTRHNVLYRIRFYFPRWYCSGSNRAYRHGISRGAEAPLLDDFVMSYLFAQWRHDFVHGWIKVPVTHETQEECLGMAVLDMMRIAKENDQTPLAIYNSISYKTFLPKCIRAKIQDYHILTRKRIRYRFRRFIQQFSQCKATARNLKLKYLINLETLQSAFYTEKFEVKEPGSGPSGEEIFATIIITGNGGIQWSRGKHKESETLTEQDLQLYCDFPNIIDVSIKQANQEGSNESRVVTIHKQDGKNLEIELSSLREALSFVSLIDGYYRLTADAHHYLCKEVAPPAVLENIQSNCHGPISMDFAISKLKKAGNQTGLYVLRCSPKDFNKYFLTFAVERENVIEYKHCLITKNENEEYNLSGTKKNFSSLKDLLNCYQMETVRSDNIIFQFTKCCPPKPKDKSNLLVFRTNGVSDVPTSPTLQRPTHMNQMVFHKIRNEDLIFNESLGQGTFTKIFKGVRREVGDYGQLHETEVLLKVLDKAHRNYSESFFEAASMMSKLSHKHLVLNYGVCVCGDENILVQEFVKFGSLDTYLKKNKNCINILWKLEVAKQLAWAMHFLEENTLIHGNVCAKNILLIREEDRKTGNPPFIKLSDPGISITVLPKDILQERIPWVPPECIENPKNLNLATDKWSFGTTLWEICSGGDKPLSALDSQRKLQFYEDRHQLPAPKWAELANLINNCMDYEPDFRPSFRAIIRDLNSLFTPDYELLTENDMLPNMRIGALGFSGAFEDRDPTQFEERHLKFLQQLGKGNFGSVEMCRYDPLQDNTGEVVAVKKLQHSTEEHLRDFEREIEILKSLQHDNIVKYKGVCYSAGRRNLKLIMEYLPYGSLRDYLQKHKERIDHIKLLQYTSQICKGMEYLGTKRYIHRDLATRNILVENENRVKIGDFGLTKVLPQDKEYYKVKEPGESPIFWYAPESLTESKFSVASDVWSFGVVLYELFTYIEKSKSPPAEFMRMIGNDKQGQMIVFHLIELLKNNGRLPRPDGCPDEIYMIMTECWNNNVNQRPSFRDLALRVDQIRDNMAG
attribute_measured: IC50 (nM)

Example results:
>  <molecule_smiles>
CC(C)CNc1c(C(N)=O)cnn2cc(-c3ccccc3)cc12

>  <value_units>
nM

>  <IC50>
160

$$$$
>  <molecule_smiles>
C[C@H](O)[C@@H](CO)Nc1c(C(N)=O)cnn2cc(-c3ccccc3)cc12

>  <value_units>
nM

>  <IC50>
370

$$$$
>  <molecule_smiles>
C[C@@H](O)[C@H](CO)Nc1c(C(N)=O)cnn2cc(-c3ccccc3)cc12

>  <value_units>
nM

>  <IC50>
1700

$$$$
>  <molecule_smiles>
NC(=O)c1cnn2cc(-c3ccccc3)cc2c1NC1CCCC1

>  <value_units>
nM

>  <IC50>
50

$$$$

a = C[C@H](O)[C@H](CO)Nc1c(C(N)=O)cnn2cc(-c3ccccc3)cc12
b = CC(C)(C)CNc1c(C(N)=O)cnn2cc(-c3ccccc3)cc12
c = COc1ccc(-c2cc3c(N[C@H](CO)[C@@H](C)O)c(C(N)=O)cnn3c2)cn1
d = CC(C)Nc1c(C(N)=O)cnn2cc(-c3ccccc3)cc12
IN: Descending sort on IC50 required. Answer format: the labels, in the requested order.
OUT: a, d, b, c

* * *

pIC50: −log10 of the molar value.
pIC50 tested on Tyrosine-protein kinase JAK1 (Homo sapiens, UniProt P23458): recorded values
Sequence (P23458 whole entry): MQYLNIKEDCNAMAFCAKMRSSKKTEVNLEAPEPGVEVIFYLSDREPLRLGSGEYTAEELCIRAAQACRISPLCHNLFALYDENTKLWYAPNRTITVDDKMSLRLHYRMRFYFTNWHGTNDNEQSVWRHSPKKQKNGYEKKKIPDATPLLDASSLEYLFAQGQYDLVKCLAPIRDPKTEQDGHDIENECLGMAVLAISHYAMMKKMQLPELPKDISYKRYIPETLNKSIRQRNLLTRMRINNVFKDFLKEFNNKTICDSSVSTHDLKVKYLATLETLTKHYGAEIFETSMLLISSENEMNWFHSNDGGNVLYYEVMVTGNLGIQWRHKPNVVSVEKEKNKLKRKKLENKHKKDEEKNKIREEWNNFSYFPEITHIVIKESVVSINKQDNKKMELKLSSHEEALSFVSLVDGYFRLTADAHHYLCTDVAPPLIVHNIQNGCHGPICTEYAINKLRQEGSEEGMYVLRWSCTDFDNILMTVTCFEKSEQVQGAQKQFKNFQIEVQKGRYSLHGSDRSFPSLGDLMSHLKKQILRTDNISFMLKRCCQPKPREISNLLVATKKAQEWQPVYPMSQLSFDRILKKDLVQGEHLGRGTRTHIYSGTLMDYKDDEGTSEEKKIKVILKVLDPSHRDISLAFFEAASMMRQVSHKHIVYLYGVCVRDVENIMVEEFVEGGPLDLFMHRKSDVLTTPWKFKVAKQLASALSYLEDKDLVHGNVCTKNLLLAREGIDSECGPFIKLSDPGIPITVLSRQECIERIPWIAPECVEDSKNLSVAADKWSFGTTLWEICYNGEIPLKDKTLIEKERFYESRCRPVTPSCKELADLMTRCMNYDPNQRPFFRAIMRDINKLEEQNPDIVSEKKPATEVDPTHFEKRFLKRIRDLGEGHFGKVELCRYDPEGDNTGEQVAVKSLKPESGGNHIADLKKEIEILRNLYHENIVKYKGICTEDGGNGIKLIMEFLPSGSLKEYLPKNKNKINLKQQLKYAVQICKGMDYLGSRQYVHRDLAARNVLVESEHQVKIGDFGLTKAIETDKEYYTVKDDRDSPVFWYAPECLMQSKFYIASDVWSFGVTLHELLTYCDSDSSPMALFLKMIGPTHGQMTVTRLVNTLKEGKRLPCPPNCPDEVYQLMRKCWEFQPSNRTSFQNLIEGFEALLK
attribute_measured: pIC50

Example results:
>  <molecule>
CC(C)(C)CNc1c(C(N)=O)cnn2cc(-c3ccccc3)cc12

>  <pIC50>
7.48

$$$$
>  <molecule>
COc1ccc(-c2cc3c(N[C@H](CO)CC4CC4)c(C(N)=O)cnn3c2)cn1

>  <pIC50>
7.49

$$$$

P = COc1ccc(-c2cc3c(NC(CO)[C@H](O)C4CC4)c(C(N)=O)cnn3c2)cn1 (stereo in doubt; 18)
Q = COc1ccc(-c2cc3c(NC(CO)[C@H](O)C4CC4)c(C(N)=O)cnn3c2)cn1 (stereo in doubt; 19)
R = CC(C)Nc1c(C(N)=O)cnn2cc(-c3ccccc3)cc12
IN: Descending sort on pIC50 required. Answer format: the labels, in the requested order.
OUT: Q, R, P
(Q: 7.68, R: 7.40, P: 6.21)

* * *

- test_protocol: Lipophilicity, log P of the compound
- Format: physicochemical
- condition_label: octanol/water
attribute_measured: logP

>  <molecule_smiles>
CC(C)CCNc1c(C(N)=O)cnn2cc(-c3ccccc3)cc12

>  <experimental_value>
5.08

$$$$
>  <molecule_smiles>
CC(C)CNc1c(C(N)=O)cnn2cc(-c3ccccc3)cc12

>  <experimental_value>
3.94

$$$$

* * *

IC50 tested on Non-receptor tyrosine-protein kinase TYK2 (Homo sapiens, UniProt P29597): recorded values
Sequence (P29597 whole entry): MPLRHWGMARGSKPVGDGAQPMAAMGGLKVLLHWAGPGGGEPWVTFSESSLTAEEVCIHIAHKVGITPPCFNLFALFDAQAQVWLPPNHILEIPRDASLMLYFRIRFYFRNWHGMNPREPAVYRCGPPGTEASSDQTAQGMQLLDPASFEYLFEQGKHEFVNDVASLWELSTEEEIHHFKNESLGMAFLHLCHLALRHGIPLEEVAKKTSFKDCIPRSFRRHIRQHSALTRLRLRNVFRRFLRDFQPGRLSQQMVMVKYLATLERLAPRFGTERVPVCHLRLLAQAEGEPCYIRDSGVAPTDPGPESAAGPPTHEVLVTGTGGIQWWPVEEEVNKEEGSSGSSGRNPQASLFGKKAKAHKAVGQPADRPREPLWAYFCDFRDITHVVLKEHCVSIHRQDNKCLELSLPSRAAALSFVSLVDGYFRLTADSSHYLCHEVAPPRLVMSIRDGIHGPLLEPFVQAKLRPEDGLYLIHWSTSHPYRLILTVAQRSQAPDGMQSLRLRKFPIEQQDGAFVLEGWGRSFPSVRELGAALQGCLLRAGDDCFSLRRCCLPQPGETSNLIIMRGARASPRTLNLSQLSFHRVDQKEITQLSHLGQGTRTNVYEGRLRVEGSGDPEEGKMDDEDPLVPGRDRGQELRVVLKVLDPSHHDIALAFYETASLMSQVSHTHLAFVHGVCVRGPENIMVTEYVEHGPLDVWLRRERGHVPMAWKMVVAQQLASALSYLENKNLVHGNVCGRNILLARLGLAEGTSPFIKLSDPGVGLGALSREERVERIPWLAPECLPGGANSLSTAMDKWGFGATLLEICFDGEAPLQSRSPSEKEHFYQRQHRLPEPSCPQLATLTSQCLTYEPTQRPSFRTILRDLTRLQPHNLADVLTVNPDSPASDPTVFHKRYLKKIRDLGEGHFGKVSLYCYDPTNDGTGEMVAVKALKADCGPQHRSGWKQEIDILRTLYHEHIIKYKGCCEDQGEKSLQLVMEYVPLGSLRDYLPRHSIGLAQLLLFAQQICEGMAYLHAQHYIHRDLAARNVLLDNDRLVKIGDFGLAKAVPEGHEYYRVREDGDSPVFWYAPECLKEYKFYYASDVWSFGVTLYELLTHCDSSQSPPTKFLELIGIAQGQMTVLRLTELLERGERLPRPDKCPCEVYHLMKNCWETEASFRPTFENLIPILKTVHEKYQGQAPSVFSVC
attribute_measured: IC50 (nM)

Example results:
>  <molecule_smiles>
COc1ccc(-c2cc3c(N[C@H](CO)[C@@H](C)O)c(C(N)=O)cnn3c2)cn1

>  <IC50 (nM)>
27

$$$$
>  <molecule_smiles>
COc1ccc(-c2cc3c(N[C@H](CO)CC4CC4)c(C(N)=O)cnn3c2)cn1

>  <IC50 (nM)>
120

$$$$
>  <molecule_smiles>
C[C@H](O)[C@@H](CO)Nc1c(C(N)=O)cnn2cc(-c3ccccc3)cc12

>  <IC50 (nM)>
210

$$$$

1 = CC(C)CCNc1c(C(N)=O)cnn2cc(-c3ccccc3)cc12
2 = C[C@@H](O)[C@H](CO)Nc1c(C(N)=O)cnn2cc(-c3ccccc3)cc12
3 = CC(C)(C)CNc1c(C(N)=O)cnn2cc(-c3ccccc3)cc12
4 = COc1ccc(-c2cc3c(NC(CO)CO)c(C(N)=O)cnn3c2)cn1
IN: Descending sort on IC50 required. Answer format: the labels, in the requested order.
OUT: 2, 4, 1, 3

The reported measurements were obtained from ChEMBL document CHEMBL4339199.
